target: recombinant human AMPK complex 1 (containing α1β1γ1) (Homo sapiens, UniProt Q13131+Q9Y478); assay: in vitro AMPK activation assay (AMPKSAMSF); type: biochemical; details: recombinant human AMPK complex 1 (α1β1γ1)
Sequence (Q13131 whole entry): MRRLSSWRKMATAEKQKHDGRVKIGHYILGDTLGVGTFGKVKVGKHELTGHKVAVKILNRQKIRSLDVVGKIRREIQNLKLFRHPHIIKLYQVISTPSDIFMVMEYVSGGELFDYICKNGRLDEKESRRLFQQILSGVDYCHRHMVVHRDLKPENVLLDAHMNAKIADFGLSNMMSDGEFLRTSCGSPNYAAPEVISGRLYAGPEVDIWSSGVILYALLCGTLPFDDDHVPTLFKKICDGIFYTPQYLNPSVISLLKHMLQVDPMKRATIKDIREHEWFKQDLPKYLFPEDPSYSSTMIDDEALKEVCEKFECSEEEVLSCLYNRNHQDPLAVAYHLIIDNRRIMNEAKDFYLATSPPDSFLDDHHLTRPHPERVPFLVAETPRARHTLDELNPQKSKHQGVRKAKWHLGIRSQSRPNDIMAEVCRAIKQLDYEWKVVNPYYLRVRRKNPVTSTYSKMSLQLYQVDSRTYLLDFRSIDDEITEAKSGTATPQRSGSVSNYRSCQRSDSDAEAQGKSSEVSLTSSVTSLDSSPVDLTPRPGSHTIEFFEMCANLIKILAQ
Sequence (Q9Y478 whole entry): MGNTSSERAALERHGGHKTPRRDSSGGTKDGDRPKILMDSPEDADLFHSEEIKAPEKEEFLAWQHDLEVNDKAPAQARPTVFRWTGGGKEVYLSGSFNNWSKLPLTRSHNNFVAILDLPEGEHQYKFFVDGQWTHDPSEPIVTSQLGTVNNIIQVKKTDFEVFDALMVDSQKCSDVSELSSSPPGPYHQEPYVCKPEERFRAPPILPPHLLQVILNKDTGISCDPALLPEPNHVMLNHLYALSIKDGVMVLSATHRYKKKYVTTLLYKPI
Sequence (P54619 whole entry partner): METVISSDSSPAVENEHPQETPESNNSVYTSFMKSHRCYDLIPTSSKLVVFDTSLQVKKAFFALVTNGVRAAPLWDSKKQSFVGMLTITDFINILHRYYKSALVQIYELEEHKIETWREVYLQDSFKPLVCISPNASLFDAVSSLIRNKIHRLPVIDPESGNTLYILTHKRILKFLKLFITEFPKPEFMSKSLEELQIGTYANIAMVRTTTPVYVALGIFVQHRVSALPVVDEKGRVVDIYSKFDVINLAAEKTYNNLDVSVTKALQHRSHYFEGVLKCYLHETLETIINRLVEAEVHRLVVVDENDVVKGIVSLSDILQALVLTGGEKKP
Recorded % Maximum AMP Activation of human AMPK Complex 1 by entry
Respond with the bare value in %.

# example entries with known answers
molecule	unitTag	experimentalResult
O=C(O)C1CCCC(Oc2nc3c(F)c(-c4ccc(-c5ccccc5)cc4)c(F)cc3[nH]2)C1 (stereo not shown)	%	617
O=C(O)C1CC1COc1nc2c(F)c(-c3ccc(-c4ccccc4)cc3)c(F)cc2[nH]1 (stereo not shown)	%	631
O=C(O)C1CC(Oc2nc3c(F)c(-c4ccc(-c5ccccc5)cc4)c(F)cc3[nH]2)C1 (stereo not shown)	%	538
O=C(O)C1CCC(Oc2nc3c(F)c(-c4ccc(-c5ccc(C(=O)N6CCC(O)CC6)cc5)cc4)c(F)cc3[nH]2)CC1 (single isomer, unassigned)	%	642
O=C(O)C1CCC(Oc2nc3c(F)c(-c4ccc(-c5ccccc5)cc4)c(F)cc3[nH]2)C1 (stereo not shown)	%	593
O=C(O)C1CCC(Oc2nc3c(F)c(-c4ccc5c(ccn5C5CC5)c4)c(F)cc3[nH]2)CC1 (stereo not shown)	%	504

Could you now consider this next molecule?
stdin: Query the reported % Maximum AMP Activation of human AMPK Complex 1 for recombinant human AMPK complex 1 (containing α1β1γ1) (Homo sapiens, UniProt Q13131+Q9Y478); item: O=C(O)C1CCC(Oc2nc3c(F)c(-c4ccc(-c5ccccc5)cc4)c(F)cc3[nH]2)CC1 (stereo not shown)
stdout: 653
